- Tested on: NCI-H1648
- Assay Summary: relative viability (nuclei count vs DMSO), 5 days (fraction); higher = more cells survive
- Condition Summary: first compound 0.8 µM
Readout Kind: relative viability
// print number alone

>  <Molecule>
O=c1[nH]c2ccccc2n1C1CCN(CCCC(c2ccc(F)cc2)c2ccc(F)cc2)CC1 [Pimozide] + Nc1nc2[nH]cc(CCc3ccc(C(=O)N[C@@H](CCC(=O)O)C(=O)O)cc3)c2c(=O)[nH]1 [Pemetrexed] (partner 0.2 µM)

>  <Readout Kind>
relative viability

>  <Endpoint Result>
0.573

$$$$

Q: Value wanted: relative viability (NCI-H1648) of entry O=c1[nH]c2ccccc2n1C1CCN(CCCC(c2ccc(F)cc2)c2ccc(F)cc2)CC1 [Pimozide] + Cc1cc(Nc2cc(N3CCN(C)CC3)nc(Sc3ccc(NC(=O)C4CC4)cc3)n2)n[nH]1 [Tozasertib] (partner 0.1 µM)
Result: 0.353

Reference for the values: the supplement of paper PMC10307832
